Measured values drawn from the supplement of paper PMC11208160 for this set.

assay: recombinant UMI read abundance after kanamycin selection (control-corrected) (log10(CPM+1)); higher = more efficient recombination; extreme values may be limits of the assay; sequences stand for … in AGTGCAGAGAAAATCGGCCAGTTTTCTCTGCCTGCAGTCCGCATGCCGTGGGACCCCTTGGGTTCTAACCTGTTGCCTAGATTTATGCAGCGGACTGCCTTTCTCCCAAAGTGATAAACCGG…AGGTTGGTTTCACT; site = the 11-nt donor;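 further: IS621 bridge recombinase in Escherichia coli cells against a fixed T5 target plasmid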
Values of recombinant UMI read abundance (log10) greater than or equal to 0.002 map to Satisfied; values below map to Not satisfied.

Known results for sequences:
>  <query.sequence>
CACTCCTCATGGACCGGTTTTCCCGGTAATCCGTATTTGCC (site CACTCGTCTGG)

>  <classification>
Not satisfied

$$$$
>  <query.sequence>
TCGTACGCATGGACCGGTTTTCCCGGTAATCCGTATTTGCC (site TCGTACGCTGG)

>  <classification>
Not satisfied

$$$$
>  <query.sequence>
GCTAATACATGGACCGGTTTTCCCGGTAATCCGTATTTGGC (site ACTAATACTGC)

>  <classification>
Not satisfied

$$$$
>  <query.sequence>
TAATGAGCATGGACCGGTTTTCCCGGTAATCCGTATTTGGG (site TAATGAGCTCT)

>  <classification>
Satisfied

$$$$
>  <query.sequence>
GACAAAACATGGACCGGTTTTCCCGGTAATCCGTATTTGGT (site GACAAAACTAC)

>  <classification>
Satisfied

$$$$

Please indicate if the recorded recombinant UMI read abundance (log10) for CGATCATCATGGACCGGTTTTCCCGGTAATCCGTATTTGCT (site CGTTCACCTAG) meets or exceeds 0.002.
Not satisfied

Another: GATTTTCCATGGACCGGTTTTCCCGGTAATCCGTATTTGCT (site GATTCTCCTAG)
Not satisfied

Also check CCGGTAGCATGGACCGGTTTTCCCGGTAATCCGTATTTGTG (site CCGTTAGCTCA)
Satisfied

Then CCAGGTTCATGGACCGGTTTTCCCGGTAATCCGTATTTGAT (site CCAGGTACTAT) ?
Satisfied

Repeat with GCATGCCCATGGACCGGTTTTCCCGGTAATCCGTATTTGAT (site GCTTGCCCTAT)
Satisfied

Please give the result for TGCACGGCATGGACCGGTTTTCCCGGTAATCCGTATTTGTT (site TGCACGGCTAA) too.
Satisfied

Repeat for the following sequence: GCTTGCCCATGGACCGGTTTTCCCGGTAATCCGTATTTGCT (site GCTTGCCCTAA)
Satisfied

Next entry: AGTTTGCCATGGACCGGTTTTCCCGGTAATCCGTATTTGAA (site AGTTTGCCTTT)
Satisfied

Now the same for AGGCGCGCATGGACCGGTTTTCCCGGTAATCCGTATTTGGA (site AGGCGCGCTTC)
Satisfied

---

assay: recombinant UMI read abundance after kanamycin selection (control-corrected) (log10(CPM+1)); higher = more efficient recombination; extreme values may be limits of the assay; sequences stand for … in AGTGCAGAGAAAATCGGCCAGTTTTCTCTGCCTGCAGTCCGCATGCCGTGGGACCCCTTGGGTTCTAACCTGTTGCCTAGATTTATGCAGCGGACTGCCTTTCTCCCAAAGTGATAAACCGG…AGGTTGGTTTCACT; site = the 11-nt donor
recombinant UMI read abundance (log10) class ranges: lower range (below 0.01), middle range (0.01 to below 2), upper range (2 or more)

>  <query.sequence>
ACAGTATCATGGACCGGTTTTCCCGGTAATCCGTATTTGCG (site ACAGTATCTAG)

>  <classification>
upper range

$$$$
>  <query.sequence>
AAAGGCTCATGGACCGGTTTTCCCGGTAATCCGTATTTGCG (site AAAGGCTCTCG)

>  <classification>
upper range

$$$$
>  <query.sequence>
CAATTCCCATGGACCGGTTTTCCCGGTAATCCGTATTTGCG (site CAATTCCCTCG)

>  <classification>
upper range

$$$$
>  <query.sequence>
GTTCGTGCATGGACCGGTTTTCCCGGTAATCCGTATTTGCA (site GTTCGGGCTTG)

>  <classification>
middle range

$$$$
>  <query.sequence>
CGATCGTCATGGACCGGTTTTCCCGGTAATCCGTATTTGCC (site CGATCATCTAG)

>  <classification>
lower range

$$$$

Which recombinant UMI read abundance (log10) category applies to CGGTAGACATGGACCGGTTTTCCCGGTAATCCGTATTTGAG (site CGCTAGACTCT) here?
middle range

// query: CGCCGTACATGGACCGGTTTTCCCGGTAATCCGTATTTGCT (site CGCCGTCCTAG)
lower range
